Exercise: state measured solubility at 24 h for each of the compounds provided.
# experimentalProtocol: Aqueous solubility in PBS, pH 7.4
# Assay type: physicochemical
# reportedConditions: phosphate buffered saline, pH 7.4, aqueous buffer, thermodynamic from solid, pH 7.4 phosphate buffered saline, 24 hours, amorphous or crystalline material; read-out: Aqu. Solubility

Here's what some known entries look like.
>  <compound>
C#C[C@]1(COC(=O)OCc2ccccc2)O[C@@H](n2ccc3c(N)nc(Cl)nc32)C[C@@H]1OC(=O)OCCCC [Example 212]

>  <solubility at 24 h>
< 1 µg/mL

$$$$
>  <compound>
C#C[C@]1(COCOC(=O)C(C)C)O[C@@H](n2ccc3c(N)nc(Cl)nc32)C[C@@H]1O [Example 54]

>  <solubility at 24 h>
247 µg/mL

$$$$
>  <compound>
C#C[C@]1(COC(=O)OCc2oc(=O)oc2C)O[C@@H](n2ccc3c(N)nc(Cl)nc32)C[C@@H]1OC(=O)OCc1oc(=O)oc1C [Example 53]

>  <solubility at 24 h>
< 1 µg/mL

$$$$
>  <compound>
C#C[C@]1(COC(=O)OCCCCCCCC)O[C@@H](n2ccc3c(N)nc(Cl)nc32)C[C@@H]1OC(=O)CC [Example 113]

>  <solubility at 24 h>
< 1 µg/mL

$$$$

Count: 2. Required value per item: solubility at 24 h.
1. C#C[C@]1(COC(=O)OC(CC)CC)O[C@@H](n2ccc3c(N)nc(Cl)nc32)C[C@@H]1OC(=O)OC(CC)CC [Example 142]
2. C#C[C@]1(COC(=O)OCc2cc[nH]c(=O)c2)O[C@@H](n2ccc3c(N)nc(Cl)nc32)C[C@@H]1OC(=O)OCc1ccccc1 [Example 161]

# output
1. < 1 µg/mL
2. < 1 µg/mL

----------
# System: HIV-1 wild-type (R8) virus
# experimentalProtocol: Viral KINetics in Green cells (VIKING) assay, HIV-1 replication in MT4-GFP reporter cells
# Type: cell-based
# reportedConditions: Human immunodeficiency virus 1, 10% normal human serum, MT4-GFP cells, HIV-1 wild-type (R8); read-out: Viking (10% NHS), IC50
propertyLabel: IC50 (nM)
Answers are plain numbers, in nM.

Here's what some known entries look like.
>  <smilesRepresentation>
C#C[C@]1(CO)O[C@@H](n2ccc3c(NC(=O)CCCCCCCCCCC)nc(Cl)nc32)C[C@@H]1O

>  <readoutNumber>
18

$$$$
>  <smilesRepresentation>
C#C[C@]1(COC(=O)CCCCCCC)O[C@@H](n2ccc3c(N)nc(Cl)nc32)C[C@@H]1O

>  <readoutNumber>
2.6

$$$$

Count: 4. Required value per item: IC50.
1. C#C[C@]1(CO[P@@](=O)(N[C@@H](C)C(=O)OC(C)C)Oc2ccccc2)O[C@@H](n2ccc3c(N)nc(Cl)nc32)C[C@@H]1O
2. C#C[C@]1(COCOC(=O)OCCCCCCCCCCCC)O[C@@H](n2ccc3c(N)nc(Cl)nc32)C[C@@H]1O
3. C#C[C@]1(COC(=O)C23CC(C2)C3)O[C@@H](n2ccc3c(N)nc(Cl)nc32)C[C@@H]1O
4. C#C[C@]1(CO)O[C@@H](n2ccc3c(N)nc(Cl)nc32)C[C@@H]1OCOC(=O)C(C)C

# output
[42, 3.7, 2.5, 5]

----------
# Test system: HIV-1 wild-type (R8) virus
# experimentalProtocol: Viral KINetics in Green cells (VIKING) assay, HIV-1 replication in MT4-GFP reporter cells
# Type: cell-based
# reportedConditions: Human immunodeficiency virus 1, 10% normal human serum, MT4-GFP cells, HIV-1 wild-type (R8); read-out: Viking (10% NHS), IC50
propertyLabel: IC50 (nM)
Numbers only, in nM.

>  <smilesRepresentation>
C#C[C@]1(CO)O[C@@H](n2ccc3c(N)nc(Cl)nc32)C[C@@H]1OC(=O)OCc1ccn(C)c(=O)c1

>  <uom>
nM

>  <IC50>
11

$$$$

Count: 2. Required value per item: IC50.
1. C#C[C@]1(CO)O[C@@H](n2ccc3c(N)nc(Cl)nc32)C[C@@H]1OC(=O)OCCCCC[C@@H]1SC[C@@H]2NC(=O)N[C@@H]21
2. C#C[C@]1(COC(=O)CCCC[C@@H]2SC[C@@H]3NC(=O)N[C@@H]32)O[C@@H](n2ccc3c(N)nc(Cl)nc32)C[C@@H]1OC(=O)CCCc1ccccc1

# output
1: 11; 2: 6.5

----------
Exercise: state measured log10 IC50 for each of the molecules provided.
# Tested on: HIV-1 wild-type (R8) virus
# experimentalProtocol: Viral KINetics in Green cells (VIKING) assay, HIV-1 replication in MT4-GFP reporter cells
# Format: cell-based
# reportedConditions: Human immunodeficiency virus 1, 10% normal human serum, MT4-GFP cells, HIV-1 wild-type (R8); read-out: Viking (10% NHS), IC50
Reminder: these figures are log10 of reported IC50, in nM before transformation.

Here's what some known entries look like.
>  <smilesRepresentation>
C#C[C@]1(CO)O[C@@H](n2ccc3c(N)nc(Cl)nc32)C[C@@H]1OC(=O)CC12CC(C1)C2

>  <experimentalSystem>
HIV-1 wild-type (R8) virus

>  <log10 IC50>
0.85

$$$$
>  <smilesRepresentation>
C#C[C@]1(CO)O[C@@H](n2ccc3c(N)nc(Cl)nc32)C[C@@H]1OC(=O)CC

>  <experimentalSystem>
HIV-1 wild-type (R8) virus

>  <log10 IC50>
1.41

$$$$
>  <smilesRepresentation>
C#C[C@]1(COCOC(=O)OC(C)C)O[C@@H](n2ccc3c(N)nc(Cl)nc32)C[C@@H]1O

>  <experimentalSystem>
HIV-1 wild-type (R8) virus

>  <log10 IC50>
0.43

$$$$
>  <smilesRepresentation>
C#C[C@]1(COCOC(=O)CCCCCCCCC)O[C@@H](n2ccc3c(N)nc(Cl)nc32)C[C@@H]1O

>  <experimentalSystem>
HIV-1 wild-type (R8) virus

>  <log10 IC50>
0.51

$$$$
>  <smilesRepresentation>
C#C[C@]1(CO)O[C@@H](n2ccc3c(N)nc(Cl)nc32)C[C@@H]1OC(=O)[C@H](C)c1ccccc1

>  <experimentalSystem>
HIV-1 wild-type (R8) virus

>  <log10 IC50>
1.46

$$$$
>  <smilesRepresentation>
C#C[C@]1(COC(=O)C(C)C)O[C@@H](n2ccc3c(N)nc(Cl)nc32)C[C@@H]1O

>  <experimentalSystem>
HIV-1 wild-type (R8) virus

>  <log10 IC50>
0.28

$$$$
>  <smilesRepresentation>
C#C[C@]1(CO)O[C@@H](n2ccc3c(N)nc(Cl)nc32)C[C@@H]1OC(=O)C12CC(C1)C2

>  <experimentalSystem>
HIV-1 wild-type (R8) virus

>  <log10 IC50>
0.54

$$$$
>  <smilesRepresentation>
C#C[C@]1(COC(=O)OCc2ccccc2)O[C@@H](n2ccc3c(N)nc(Cl)nc32)C[C@@H]1O

>  <experimentalSystem>
HIV-1 wild-type (R8) virus

>  <log10 IC50>
0.59

$$$$

Count: 3. Required value per item: log10 IC50.
1. C#C[C@]1(COC(=O)OCCc2ccccc2)O[C@@H](n2ccc3c(N)nc(Cl)nc32)C[C@@H]1O
2. C#C[C@]1(COC(=O)C(C)C)O[C@@H](n2ccc3c(N)nc(Cl)nc32)C[C@@H]1OC(=O)C(C)C
3. C#C[C@]1(CO)O[C@@H](n2ccc3c(N)nc(Cl)nc32)C[C@@H]1OC(=O)OCc1cccnc1

# output
0.56
1.04
0.83

Count: 2. Required value per item: log10 IC50.
1. C#C[C@]1(CO)O[C@@H](n2ccc3c(NC(=O)OCCCCCCCCCCCC)nc(Cl)nc32)C[C@@H]1O
2. C#C[C@]1(CO)O[C@@H](n2ccc3c(NC(=O)OCC4CCCCC4)nc(Cl)nc32)C[C@@H]1O

# output
1. 3.38
2. 2.87
